Reference for the values: PubChem BioAssay (NCI)

Field: TGI. Provide a value for each of the molecules that follow.
- Tested on: 786-0 renal
- procedure details: NCI tumour cell line growth inhibition, 48 h

Input: Could you tell me which TGI is on file for C=C(Br)N(CC)CC ?
Output: > 100 µM

Input: Could you tell me which TGI is on file for COc1ccc(-c2nc3ccccn3c2/C=C/C(=O)c2cc(OC)c(OC)c(OC)c2)cc1 ?
Output: > 100 µM

Input: Could you tell me which TGI is on file for CCc1cccc(C(C)C)c1N1C(=O)C(=O)C(c2nc3ccccc3s2)C(=O)C1=O ?
Output: > 50 µM

----------
- System: CCRF-CEM leukemia
- procedure details: NCI tumour cell line growth inhibition, 48 h
readout name: TGI (µM)
Respond numerically; units are µM and should not be typed.

Input: Given the entry O=C(CC1(O)C(=O)Nc2c(Cl)cc(Cl)cc21)c1cccc2ccccc12 (configuration not stated) , what TGI was observed with CCRF-CEM leukemia?
Output: 41.3

Input: Given the entry O=C(O)/C(=C/C=C/c1ccccc1)c1csc(-c2nc(/C(=C\C=C\c3ccccc3)C(=O)O)cs2)n1 , what TGI was observed with CCRF-CEM leukemia?
Output: 45.6

Input: Given the entry COCOc1c(C(O[Si](C)(C)C(C)(C)C)c2cnc(Sc3ccccc3)n2C)ccc(OC)c1OC (configuration not stated) , what TGI was observed with CCRF-CEM leukemia?
Output: 9

Input: Given the entry NCCCNC1(c2cc3ccccc3s2)CCCCC1 , what TGI was observed with CCRF-CEM leukemia?
Output: 13

Input: Given the entry CC1(Cl)CCC2(CC(Br)=CC3OC32C)CC1Br (configuration not stated) , what TGI was observed with CCRF-CEM leukemia?
Output: 53.5

Input: Given the entry CC(=C(C(N)=O)C(N)=O)C1C=C(c2cccs2)CC(c2ccc(Cl)cc2)=C1O (configuration not stated) , what TGI was observed with CCRF-CEM leukemia?
Output: 79.4

Input: Given the entry COc1cc(O)c(C(=O)/C=C/c2ccc(O)cc2)c(O)c1[C@@H]1C[C@H](CCc2ccc(O)cc2)O[C@H](c2ccc(O)cc2)C1 , what TGI was observed with CCRF-CEM leukemia?
Output: 10.6

Input: Given the entry CC[C@@H](C(=O)[C@@H](C)[C@@H](O)[C@H](C)[C@@H]1O[C@@H]([C@@H](CC)C(=O)N(CC)CC)CC[C@@H]1C)C1O[C@]2(C=CC(=O)[C@]3(CC[C@@](C)([C@H]4CC[C@](O)(CC)[C@H](C)O4)O3)O2)[C@H](C)C[C@@H]1C (some centres not stated) , what TGI was observed with CCRF-CEM leukemia?
Output: 14.4

Input: Given the entry Brc1ccc2c([C@H]3CN[C@@H](c4c[nH]c5cc(Br)ccc45)CN3)c[nH]c2c1 , what TGI was observed with CCRF-CEM leukemia?
Output: 8.64

Input: Given the entry CC(C)[Si](OC1=CCC[C@H]2NC(=O)[C@@H](Cc3ccccc3)[C@@]12C)(C(C)C)C(C)C , what TGI was observed with CCRF-CEM leukemia?
Output: 10.2
